Recorded values, source PubChem BioAssay (NCI).

- experimentDescription: NCI Yeast Anticancer Drug Screen. Data for the sgs1 mgt1 strain (AID 161)
- conditionDetails: S. cerevisiae sgs1 mgt1 strain, at 50.0 µM
- Method: Growth inhibition of yeast strains with defined genetic alterations is measured as a screen for potential anti-cancer activity. Selected strains with alterations in DNA damage repair or cell cycle control were exposed to compounds and growth inhibition was measured relative to vehicle treated controls. The strain used in this assay is sgs1 mgt1
About 79,000 compounds went through this panel and 15% of them were active in at least one assay; those are over-represented in the sample as a whole. Active and inactive are the calls of the source. Cut-off read from the data, not from the text of the source: active = growth inhibition above about 70%; inactive = the rest.
The reply should name one outcome from active, inactive

Ask | // param item: CC(C)(C)c1ccc(OP(=O)(Oc2ccccc2)Oc2ccccc2)cc1 ; yields the recorded call
Reply | inactive

Ask | // param item: Cc1ccc(N2CC=C(c3ccccc3)OP2(=O)N(CCCl)CCCl)cc1 (stereo unspecified) ; yields the recorded call
Reply | active

Ask | // param item: Nc1cc2[nH]cnc2c([Se])n1 ; yields the recorded call
Reply | inactive

Ask | // param item: O=C([CH-]C(=O)c1ccccc1)c1ccccc1.O=C([CH-]C(=O)c1ccccc1)c1ccccc1.[CH2-]CCC.[CH2-]CCC.[Sn+4] ; yields the recorded call
Reply | active

Ask | // param item: CCOC(=O)c1ccc(NP(=O)(Oc2ccccc2)Oc2ccccc2)cc1 ; yields the recorded call
Reply | inactive

Ask | // param item: COc1ccc(NC(=O)/C(=N/NC(N)=S)C2C(=O)NC(=S)NC2=O)c(OC)c1 ; yields the recorded call
Reply | inactive

Ask | // param item: Cc1cc(C)c(C[N+](C)(C)C)c(C)c1C ; yields the recorded call
Reply | active

Ask | // param item: O=C(O)C(=O)Cc1ccc2c(c1)OCO2 ; yields the recorded call
Reply | inactive

Next:
Ask | // param item: CCCCCCCCCCCCCCC[As](=O)(O)CCCCCCCCCCCCCCC ; yields the recorded call
Reply | inactive

Ask | // param item: COc1ccc(/C=C\[N+](=O)[O-])cc1OCc1ccccc1 ; yields the recorded call
Reply | inactive

Ask | // param item: Cc1cc(-n2c(C)nc3ccccc3c2=O)on1 ; yields the recorded call
Reply | inactive

Ask | // param item: O=P(c1cccc(C(F)(F)F)c1)(c1cccc(C(F)(F)F)c1)c1cccc(C(F)(F)F)c1.O=P(c1cccc(C(F)(F)F)c1)(c1cccc(C(F)(F)F)c1)c1cccc(C(F)(F)F)c1.[Cl][Sn]([Cl])([Cl])[Cl] ; yields the recorded call
Reply | inactive
